meta.source: patent US10597388B2

Attribute: Barnyardgrass plant response rating
- Test system: barnyardgrass (Echinochloa crus-galli)
- method: Test A greenhouse herbicide test, pre- and postemergence
- Assay type: in vivo
- test conditions: Postemergence, 500 g ai/ha; 0 to 100 scale, 0 is no effect, 100 is complete control
quantity measured: Barnyardgrass plant response rating

> print(dat)
                                    compound  assay.result
 1  COC(=O)Oc1c(C)nn(C)c(=O)c1-c1c(C)sc2c(C)cc(C)cc12            90
 2  COc1nn(C)c(=O)c(-c2c(C)sc3ccc(Cl)cc23)c1O            30
 3  Cc1cc(C)c2sc(C)c(-c3c(OC(=O)C(C)(C)C)c(C)nn(C)c3=O)c2c1            30
 4  CC(=O)Oc1c(C#N)nn(C)c(=O)c1-c1c(C)ccc2ccccc12            90
 5  CCOC(=O)Oc1c(C)nn(C)c(=O)c1-c1c(C)ccc2ccccc12            90
 6        Cc1ccc(-c2c(O)cnn(C)c2=O)c2ccccc12             0
 7   CCc1ccc2ccc(C)cc2c1-c1c(O)c(C)nn(C)c1=O            90
 8  Cc1nn(C)c(=O)c(-c2c(C)sc3ccc(Cl)cc23)c1O           100
 9  Cc1cc(C)c2sc(C)c(-c3c(OC(=O)OC(C)C)c(C)nn(C)c3=O)c2c1            70
10  COC(=O)Oc1c(Cl)nn(C)c(=O)c1-c1c(C)sc2ccc(Cl)cc12            30
11  CCOC(=O)Oc1c(C)nn(C)c(=O)c1-c1c(C)sc2ccc(C)cc12            50

====

- Test system: crabgrass, large (large crabgrass, Digitaria sanguinalis)
- method: Test C greenhouse herbicide test, pre- and postemergence
- Format: in vivo
- test conditions: postemergence, 62 g ai/ha; scale 0 to 100, 0 no effect, 100 complete control
quantity measured: Crabgrass, Large plant response rating

> print(dat)
                                   compound                       quantity.measured  assay.result
1  Cc1sc2ccc(Cl)cc2c1-c1c(OS(C)(=O)=O)c(Cl)nn(C)c1=O  Crabgrass, Large plant response rating            20
2  CCC(=O)Oc1c(C)nn(C)c(=O)c1-c1c(C)sc2c(C)cc(C)cc12  Crabgrass, Large plant response rating            20
3      Cc1ccc2ccccc2c1-c1c(O)c(Cl)nn(C)c1=O  Crabgrass, Large plant response rating            35
4  CCOC(=O)Oc1c(C)nn(C)c(=O)c1-c1c(C)sc2c(C)cc(C)cc12  Crabgrass, Large plant response rating            25
5  Cc1cc(C)c2sc(C)c(-c3c(OC(=O)OCCCl)c(C)nn(C)c3=O)c2c1  Crabgrass, Large plant response rating            30
6  CC(=O)Oc1c(C)nn(C)c(=O)c1-c1ccc(F)c2ccccc12  Crabgrass, Large plant response rating            15
7  Cc1nn(C)c(=O)c(-c2cc(F)cc3ccccc23)c1OS(C)(=O)=O  Crabgrass, Large plant response rating            20
